# EXPERIMENT_NOTES: Apparent terminal half life in mouse plasma at 1 mg/kg, iv
# Format: ADME, organism-based
# Design: dose 1 mg/kg, route intravenous
MEASURE: half-life (h)
Answers are plain numbers, in h.

**Q:** Requested field: half-life. Item: COc1ccc(C[C@H](C)CN2C[C@@H]3CCCC[C@@H]3[C@H](C(=O)N3CCN(c4ccc(F)c(F)c4)CC3)C2)cn1.O=C(O)/C=C/C(=O)O
**A:** 1.5

###

# ASSAY_SYSTEM: Somatostatin receptor type 1 (Rattus norvegicus, UniProt P28646)
# Sequence (P28646 whole entry): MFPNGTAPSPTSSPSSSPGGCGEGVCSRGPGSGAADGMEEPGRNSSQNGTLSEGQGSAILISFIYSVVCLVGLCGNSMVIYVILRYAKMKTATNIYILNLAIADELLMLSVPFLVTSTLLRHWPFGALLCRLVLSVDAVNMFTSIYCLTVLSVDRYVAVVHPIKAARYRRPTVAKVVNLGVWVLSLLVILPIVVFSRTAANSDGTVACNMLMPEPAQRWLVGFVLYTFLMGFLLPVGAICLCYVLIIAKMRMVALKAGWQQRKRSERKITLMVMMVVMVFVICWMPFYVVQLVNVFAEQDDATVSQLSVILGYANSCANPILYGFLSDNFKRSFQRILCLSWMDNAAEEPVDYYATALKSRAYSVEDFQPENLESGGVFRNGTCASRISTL
MEASURE: Kd

**Q:** Can you share its Kd? I mean this molecule: COc1ccc(C[C@@H](C)CN2C[C@H]3CCCC[C@H]3[C@@H](C(=O)N3CCN(c4ccc(F)c(F)c4)CC3)C2)cn1
**A:** 0.813 µM

src = ChEMBL document CHEMBL1154945
